System: Caenorhabditis elegans
ASSAY_TEXT: C. elegans L1 nematicidal dose response in 96-well plates, 5 day visual score (Example 2; same procedure for Example 7, Table 3)
Assay type: in vivo
Design: key: Dead: only stiff L1s (no movement); Dead (L4): worms are dead, but at a later larval stage; majority of worms are L1 (based on size) worms move when plate is tapped; majority of worms are L2 (based on size); majority of worms are L3 (based on size); majority of worms are L4 (based on size); AD: majority of worms are adult; #AD: 5 adult worms or less; B!: sterile (0-25 progeny); B: low broodsize (25-100 progeny); ˜B: moderate broodsize (100-250 progeny); <: reduced broodsize (250-500 progeny); OK: no effect (˜1000+ progeny)
PROTOCOL_CONDITIONS: Follow-up HTS run

{"SMILES_DATA": "COc1ccc(CCN(C)c2nc(NCc3ccc(C(F)(F)F)cc3)ns2)cc1OC", "SYSTEM_NAME": "Caenorhabditis elegans", "Follow-up HTS Run Visual Score": "L2"}
{"SMILES_DATA": "CCCN(CC1CC1)c1nc(NCc2ccccc2C(F)(F)F)ns1", "SYSTEM_NAME": "Caenorhabditis elegans", "Follow-up HTS Run Visual Score": "L2"}

###

System: Caenorhabditis elegans
ASSAY_TEXT: C. elegans L1 nematicidal dose response in 96-well plates, 5 day visual score (Example 2; same procedure for Example 7, Table 3)
Assay type: in vivo
Parameters: key: Dead: only stiff L1s (no movement); Dead (L4): worms are dead, but at a later larval stage; majority of worms are L1 (based on size) worms move when plate is tapped; majority of worms are L2 (based on size); majority of worms are L3 (based on size); majority of worms are L4 (based on size); AD: majority of worms are adult; #AD: 5 adult worms or less; B!: sterile (0-25 progeny); B: low broodsize (25-100 progeny); ˜B: moderate broodsize (100-250 progeny); <: reduced broodsize (250-500 progeny); OK: no effect (˜1000+ progeny)
PROTOCOL_CONDITIONS: dose response, dilution V2, day 5

{"SMILES_DATA": "OCCN(Cc1ccccc1)c1nc(NCc2ccc(C(F)(F)F)cc2)ns1", "5 Day Visual Score V2": "Dead"}
{"SMILES_DATA": "Fc1ccc(N2CCN(c3nc(NCCc4ccc(Oc5ccccc5)cc4)ns3)CC2)cc1", "5 Day Visual Score V2": "Dead"}
{"SMILES_DATA": "CCCCCCCCCCNc1nsc(N(C)CCc2ccc(OC)c(OC)c2)n1", "5 Day Visual Score V2": "Dead"}
{"SMILES_DATA": "Fc1ccc(CCNc2nsc(N3CCN(c4ccc(F)cc4)CC3)n2)cc1", "5 Day Visual Score V2": "L1"}
{"SMILES_DATA": "CCCCCCCCCCNc1nsc(N(CC(C)C)CC(C)C)n1", "5 Day Visual Score V2": "Dead"}
{"SMILES_DATA": "CCCCCCCCCCNc1nsc(N2CCN(c3ccc(F)cc3)CC2)n1", "5 Day Visual Score V2": "Dead"}

###

Tested on: Caenorhabditis elegans
ASSAY_TEXT: C. elegans L1 nematicidal dose response in 96-well plates, 5 day visual score (Example 2; same procedure for Example 7, Table 3)
Format: in vivo
Set-up: key: Dead: only stiff L1s (no movement); Dead (L4): worms are dead, but at a later larval stage; majority of worms are L1 (based on size) worms move when plate is tapped; majority of worms are L2 (based on size); majority of worms are L3 (based on size); majority of worms are L4 (based on size); AD: majority of worms are adult; #AD: 5 adult worms or less; B!: sterile (0-25 progeny); B: low broodsize (25-100 progeny); ˜B: moderate broodsize (100-250 progeny); <: reduced broodsize (250-500 progeny); OK: no effect (˜1000+ progeny)
PROTOCOL_CONDITIONS: dose response, dilution V2, day 5
Experimental: Caenorhabditis elegans adults were grown on Nematode Growth Medium (NGM) until they produced eggs, then the adults were removed. The eggs were allowed to hatch, and the L1 larvae collected. […] The nematodes had cleared all control wells by day 4, and nematode viability was scored by visual examination under a 100× dissecting microsope on day 5. […] The nematicidal activity of anthelmintic Compositions 48-168 were determined in accordance with the procedure outlined in Example 2.

{"SMILES_DATA": "CCCCCCCCCCCCCCCCCCN(C)c1nc(NCc2ccc(C(F)(F)F)cc2)ns1", "SYSTEM_NAME": "Caenorhabditis elegans", "5 Day Visual Score V2": "L1"}
{"SMILES_DATA": "Cc1cccc(C)c1N1CCN(c2nsc(N(CC(C)C)CC(C)C)n2)CC1", "SYSTEM_NAME": "Caenorhabditis elegans", "5 Day Visual Score V2": "Dead"}
{"SMILES_DATA": "CCCCNc1nsc(N2CCN(c3cccc(C(F)(F)F)c3)CC2)n1", "SYSTEM_NAME": "Caenorhabditis elegans", "5 Day Visual Score V2": "Dead"}

###

Tested on: Caenorhabditis elegans
ASSAY_TEXT: C. elegans L1 nematicidal dose response in 96-well plates, 5 day visual score (Example 2; same procedure for Example 7, Table 3)
Assay type: in vivo
Design: key: Dead: only stiff L1s (no movement); Dead (L4): worms are dead, but at a later larval stage; majority of worms are L1 (based on size) worms move when plate is tapped; majority of worms are L2 (based on size); majority of worms are L3 (based on size); majority of worms are L4 (based on size); AD: majority of worms are adult; #AD: 5 adult worms or less; B!: sterile (0-25 progeny); B: low broodsize (25-100 progeny); ˜B: moderate broodsize (100-250 progeny); <: reduced broodsize (250-500 progeny); OK: no effect (˜1000+ progeny)
PROTOCOL_CONDITIONS: Follow-up HTS run
Method: Caenorhabditis elegans adults were grown on Nematode Growth Medium (NGM) until they produced eggs, then the adults were removed. The eggs were allowed to hatch, and the L1 larvae collected. […] The nematodes had cleared all control wells by day 4, and nematode viability was scored by visual examination under a 100× dissecting microsope on day 5. […] The nematicidal activity of anthelmintic Compositions 48-168 were determined in accordance with the procedure outlined in Example 2.

{"MOLECULE": "CCCCCCCCCCNc1nsc(N(CC)Cc2ccccc2)n1", "Follow-up HTS Run Visual Score": "Dead"}
{"MOLECULE": "CC1CC(C)CN(c2nc(NCc3ccccc3)ns2)C1 (stereo not shown)", "Follow-up HTS Run Visual Score": "L4/AD/B"}
{"MOLECULE": "CCCCCCCCCCNc1nsc(N(CC(CC)CCCC)CC(CC)CCCC)n1 (stereo not shown)", "Follow-up HTS Run Visual Score": "Dead"}
{"MOLECULE": "C=CCN(CC=C)c1nc(NCCCCCCCCCC)ns1", "Follow-up HTS Run Visual Score": "Dead"}
{"MOLECULE": "CCCCN(CC)c1nc(NCc2ccc(C(F)(F)F)cc2)ns1", "Follow-up HTS Run Visual Score": "L2"}
{"MOLECULE": "CCCCCCCCCCCCCCCCCCN(C)c1nc(N2CCN(c3c(C)cccc3C)CC2)ns1", "Follow-up HTS Run Visual Score": "5AD/B"}
{"MOLECULE": "CCCCN(CCCCO)c1nc(N2CCN(c3c(C)cccc3C)CC2)ns1", "Follow-up HTS Run Visual Score": "Dead"}
{"MOLECULE": "CCOC(=O)CCN(Cc1ccccc1)c1nc(NCCC(c2ccccc2)c2ccccc2)ns1", "Follow-up HTS Run Visual Score": "L4/AD/B"}
{"MOLECULE": "COc1ccc(CCN(C)c2nc(NC3CCCCCCCCCCC3)ns2)cc1OC", "Follow-up HTS Run Visual Score": "Dead"}
{"MOLECULE": "CCCCN(Cc1ccccc1)c1nc(NC2CCCCCCCCCCC2)ns1", "Follow-up HTS Run Visual Score": "Dead"}
{"MOLECULE": "Fc1ccc(N2CCN(c3nc(NCc4c(F)cccc4F)ns3)CC2)cc1", "Follow-up HTS Run Visual Score": "L4"}
{"MOLECULE": "CN(CCc1ccccc1)c1nc(NC2CCCCCCCCCCC2)ns1 [AKC 335]", "Follow-up HTS Run Visual Score": "Dead"}
{"MOLECULE": "OCC1CCCN1c1nc(NCc2ccc(C(F)(F)F)cc2)ns1 (stereo not shown)", "Follow-up HTS Run Visual Score": "L2"}
{"MOLECULE": "CCN(Cc1ccccc1)c1nc(NCc2c(F)cccc2F)ns1", "Follow-up HTS Run Visual Score": "L4"}
{"MOLECULE": "CCCCCCCCCCNc1nsc(N(CCCC)Cc2ccccc2)n1", "Follow-up HTS Run Visual Score": "Dead"}

###

Test system: Caenorhabditis elegans
ASSAY_TEXT: C. elegans L1 nematicidal dose response in 96-well plates, 5 day visual score (Example 2; same procedure for Example 7, Table 3)
Type: in vivo
Set-up: key: Dead: only stiff L1s (no movement); Dead (L4): worms are dead, but at a later larval stage; majority of worms are L1 (based on size) worms move when plate is tapped; majority of worms are L2 (based on size); majority of worms are L3 (based on size); majority of worms are L4 (based on size); AD: majority of worms are adult; #AD: 5 adult worms or less; B!: sterile (0-25 progeny); B: low broodsize (25-100 progeny); ˜B: moderate broodsize (100-250 progeny); <: reduced broodsize (250-500 progeny); OK: no effect (˜1000+ progeny)
PROTOCOL_CONDITIONS: dose response, dilution V2, day 5

{"COMPOUND": "CC1(C)CC(O)CC(C)(CNc2nsc(N3CCN(c4ccc(F)cc4)CC3)n2)C1 (stereo not shown)", "5 Day Visual Score V2": "Dead"}
{"COMPOUND": "CCCCCCCCCCNc1nsc(N(CC(CC)CCCC)CC(CC)CCCC)n1 (stereo not shown)", "5 Day Visual Score V2": "Dead"}
{"COMPOUND": "CCCCCCCCCCNc1nsc(N(C)CCc2ccccc2)n1", "5 Day Visual Score V2": "Dead"}
{"COMPOUND": "FC(F)(F)c1ccc(CNc2nsc(N3CCN(c4ncccn4)CC3)n2)cc1", "5 Day Visual Score V2": "L1"}
{"COMPOUND": "CCCCCCCCCCNc1nsc(N(CC)C2CCCCC2)n1", "5 Day Visual Score V2": "Dead"}
{"COMPOUND": "CCOc1cc(CCNc2nsc(N3CCN(c4ccc(F)cc4)CC3)n2)ccc1OC", "5 Day Visual Score V2": "L1"}
